Parameter t ½: see the listing below.
Biological target: T1, serum resistance-associated protein (SRA) from Trypanosoma brucei rhodesiense, recombinant SRA (SEQ ID NO: … (Trypanosoma brucei rhodesiense, UniProt O96637 31-274))
T1 construct: also called SRA protein
T1 sequence: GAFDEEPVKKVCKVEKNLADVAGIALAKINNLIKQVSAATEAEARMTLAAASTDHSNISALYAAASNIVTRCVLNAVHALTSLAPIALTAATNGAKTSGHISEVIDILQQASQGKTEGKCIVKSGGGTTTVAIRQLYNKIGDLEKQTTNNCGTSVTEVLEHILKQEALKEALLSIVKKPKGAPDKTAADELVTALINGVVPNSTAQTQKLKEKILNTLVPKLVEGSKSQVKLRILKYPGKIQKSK
Test: SPR, mAb captured, 25C, assoc. pH 7.4, dissoc. pH 4.5

{"Binder": "H1H10069P (antibody, V domains shown, Fully human antibody with human IgG1 Fc (prefix H1H)) VH: QVQLQESGPGLVKPSETLSLTCSVSGGSFTNYYWSWIRQPPGKGLEWIGSVFYSGTTNYNPSLQSRVTLSIETSKNQFSLRLNSVTAADTAVYYCARDQGAAALDYWGQGTLVTVSS VL: DIQMTQSPSTLSASVGDRLTITCRASQSINNWLAWYQQKPGKAPKLLIYKASNLESGVPSRFSGSGSGTEFTLTISNLQPDDFATYYCQQYNSFFLTFGGGTKVEIK", "Value Units": "min", "t ½": 112}
{"Binder": "H2aM10204N (antibody, V domains shown, Chimeric antibody, human variable domains and mouse constant domains (mouse Fc, prefix H2aM); also called H2M10204N) VH: QVHLVQSGAEVKKPGSSVKVSCKASGGTFSNYAISWVRQAPGQGLEWMGGIIPFSGSATYAQNFQGRITITTDESTRTAYMELNGLRSEDTAVYYCARWFSGYGGDFDYWGQGTLVTVSS VL: AIQMTQSPSSLSASVGDRVTITCRASQDIKNDLGWYQQKPGKAPKLLIYAASTLQSGVPSRFSGSGSGTHFTLTLSSLQPEDFATYFCLQDYTFPRTFGQGTKVEIK", "Value Units": "min", "t ½": 2}
{"Binder": "H1H10026P (antibody, V domains shown, Fully human antibody with human IgG1 Fc (prefix H1H)) VH: QVQLVESGGGVVQPGRSLRLSCEASGFTFSIYGMHWVRQAPGKGLEWVAVISYDGTNRYYADSVKGRFTISRDNSKNTLYLQMNSLRAEDTAVYYCAKVNIWNFLFDYWGQGTLVTVSS VL: EIVLTQSPGTLSLSPGERATLSCRASQSVSGNYLAWYQQKPGQAPRLLIYGPSSRATGIPDRFSGSGSGTDFTLTISRLEPEDFAVYYCQQYGTSLTFGGGTKVEIK", "Value Units": "min", "t ½": 105}
